system: SR; assay: NCI tumour cell line growth inhibition, 48 h
Active and inactive are the calls of the source. Cut-off read from the data, not from the text of the source: active = GI50 up to about 1.1 µM and inactive = higher.
Labels: active, inactive

Molecule	Assigned label
CC(=O)Nc1ccc(N2C(=O)/C(=C\c3cccc(Oc4ccccc4)c3)SC2c2ccccc2)cc1 (stereo unspecified)	inactive
CCN(CC)c1cccc2c1/C(=N/O)CCCC2	inactive
CCOC(=O)C1S/C(=N\c2cccc(Cl)c2C)N=C1C (stereo unspecified)	inactive
COc1ccc2c(c1)/C(=C\c1c(Cl)nc3sc(C)cn13)C(=O)N2	active
CC(=O)NC1=C(NCCO)C(=O)c2ccccc2C1=O	inactive
O=P1(Oc2ccccc2)N=P(c2ccccc2)(c2ccccc2)C=C(c2ccc(Cl)cc2)N1 (stereo unspecified)	inactive
CCOP(=O)(OCC)/C(C#N)=C/c1ncc[nH]1	inactive
[N-]=[N+]=Nc1ccc(S(=O)(=O)Oc2cc(OS(=O)(=O)c3ccc(N=[N+]=[N-])cc3)cc(OS(=O)(=O)c3ccc(N=[N+]=[N-])cc3)c2)cc1	inactive
O=c1c2cc([N+](=O)[O-])ccc2[nH]n1Cc1ccccc1Cl	inactive
C[C@]12CCC[C@H](O)[C@H]1C[C@H](CO)CC2	inactive
Cc1ccc2c(c1)C/C(=C\c1ccccc1C(=O)O)C2=O	inactive
